B1: TPR t1 (parent)
chain: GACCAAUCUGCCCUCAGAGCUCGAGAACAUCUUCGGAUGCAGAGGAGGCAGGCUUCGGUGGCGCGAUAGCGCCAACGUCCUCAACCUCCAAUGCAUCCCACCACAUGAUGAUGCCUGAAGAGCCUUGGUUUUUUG

# Variants of: B1
# MEASUREMENT NOTES: polymerase ribozyme fitness, log enrichment relative to wild type (log ratio); higher = more active; in vitro selection for triplet polymerase activity
Let's look at some variants and their measured polymerase ribozyme fitness (log ratio).
READOUT KIND: polymerase ribozyme fitness (log ratio)

MUTATION DESCRIPTOR	READOUT KIND	REPORTED
G36C C53G C56A A95U	polymerase ribozyme fitness (log ratio)	-2.45
C98A C114U	polymerase ribozyme fitness (log ratio)	-6.3
C12G C13A C56U C124A U132C	polymerase ribozyme fitness (log ratio)	0.686
A5G C20U U38G G110U	polymerase ribozyme fitness (log ratio)	-4.64
C4U C62G U112A	polymerase ribozyme fitness (log ratio)	-1.6

Attribution: the RNAGym collection of RNA variant scans (doi:10.1073/pnas.2313332121)
